Recorded MFI values for a group of binders are listed next.
# measurementTarget: T1, human GPRC5D (human, UniProt Q9NZD1 1-345)
# T1 construct: on transfected HEK293/RBL cells or endogenous on myeloma cells (H929, MM1R, OPM2, LP1, JIM3, patient plasma cells); also called G protein-coupled receptor class C group 5 member D; hGPRC5D
# T1 sequence (Q9NZD1 whole entry): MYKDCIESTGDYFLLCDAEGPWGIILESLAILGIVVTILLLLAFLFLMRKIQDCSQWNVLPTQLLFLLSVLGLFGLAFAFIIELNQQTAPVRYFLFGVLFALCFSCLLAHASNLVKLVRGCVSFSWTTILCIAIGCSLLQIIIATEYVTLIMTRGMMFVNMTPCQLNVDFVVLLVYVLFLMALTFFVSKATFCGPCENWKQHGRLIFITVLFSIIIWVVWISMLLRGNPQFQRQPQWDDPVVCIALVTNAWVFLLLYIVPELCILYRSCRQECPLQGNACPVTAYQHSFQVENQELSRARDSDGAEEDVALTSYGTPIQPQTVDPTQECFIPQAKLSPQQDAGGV
# methodNotes: FACS, human GPRC5D cells
assayMetric: MFI

* GC5B505 (antibody, V domains shown, GC5B164 PTM variant; also called GC5H244) VH: EVQLVQSGAEVKKPGESLKISCKGSGYSFTSYWIGWVRQMPGKGLEWMGIIYPGYSDTRYSPSFQGQVTISADKSISTAYLQWSSLKASDTAMYYCARVYSFGGRHKALFDYWGQGTLVTVSS VL: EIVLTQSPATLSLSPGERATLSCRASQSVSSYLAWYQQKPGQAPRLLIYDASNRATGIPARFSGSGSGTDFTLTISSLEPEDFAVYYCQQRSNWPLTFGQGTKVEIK | > 10000 mfi
* GC5B490 (antibody, V domains shown, GC5B164 PTM variant; also called GC5H259) VH: EVQLVQSGAEVKKPGESLKISCKGSGYSFTSYAIGWVRQMPGKGLEWMGIIYPGESDTRYSPSFQGQVTISADKSISTAYLQWSSLKASDTAMYYCARVYSFGGRHKALFDYWGQGTLVTVSS VL: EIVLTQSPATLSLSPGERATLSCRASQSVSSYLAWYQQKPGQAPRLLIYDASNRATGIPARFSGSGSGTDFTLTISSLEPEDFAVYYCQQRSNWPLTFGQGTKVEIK | 1000 to 10000 mfi
